testSummary: soluble fraction after stress (log2 fold change); higher = more stays soluble; pooled small domains, quantitative proteomics;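 note: 20 min heating vs room temperature control held 20 min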
runConditions: stress: 75 degC
Tick t if soluble fraction (log2) is -0.7 or greater. Tick f if soluble fraction (log2) is less than -0.7.

For orientation, consider the following solved cases.
seq	class
HMKQAINFSDLNSLEEGLGIAIRQKWNEVSINDVPEDKIELVEDWINNNRGKYKGINISIGSTY	t
HMRQMSEELQSAKEALEDRRTQEKAVLLLMEHRNISNDEAHRLLRKLAMDQGKRLPEVARALVSMAGVL	t
HMYNIDSFMTKNYPTMERFTLSDVQKKYKTTFGLFVKQDELASMIEKTGRFNITSSKNVKYVNR	f
HMGIGSTLTDGVRVYASDDEIVVNAPAESDVRIFNAGGAQLYAGRVADVRVAVAKGLYVVTVDGRSTKITV	f
HMIETLGDATFKRLKAMILDGTLEPGTRLSEKKFADHLGVSRTPVREAIGQLVSEGLAKRSAGSAPVVSS	t

Determine whether this sequence has soluble fraction (log2) no lower than -0.7: HMVQDSEWWRNYQSAHDYFIQNGHLNVLRSDKKNTKLYNWIVGQRSSRWNSQGRINLLNSIGFIWDT f

Determine whether measured soluble fraction (log2) meets or exceeds -0.7 for HMAKPVNISAEPYHYDPTRFRVTFELPRLSDQPRKRIRKVAPAGLDREQALAWAKRLEREVLHELLR f

Check if soluble fraction (log2) >= -0.7 (inclusive). Item: HMTNVFSIIGKKALVIKDIDPIHSSGQIKLNGEVWSAETENDEIIKEGSEVEVLKINGVKAIVKLV t

====

For each of the sequences below, state its soluble fraction (log2).
testSummary: soluble fraction after stress (log2 fold change); higher = more stays soluble; pooled small domains, quantitative proteomics
runConditions: stress: 75 degC
Numbers only.

Worked cases, soluble fraction (log2) given:
seq	measuredNumber
HMEPVFSDPARQTLYQEVMELPAKYRVPLYLYYYEGYKVDEVGELLGLNASTVQTRLARARAKLKIQL	-0.489
HMFGELTPDTAKRFLLTAREQEMASLIAQGLTNKEIAFRLGISEATVRTHIYNLFQKVGVQSRIELLNVLH	-1.69
HMKQPVPDEIYFKRLANATEALGRYPRASERKKFGLNMSKRRYPTLTDFINKAIELGYVEDFR	-0.833

Batch request: soluble fraction (log2) per item, same order as input.
1. HMRTEGNLGAKVRVLRRSQGMTQAELARRLGISPSYLNLIEHNRRSFTADLLVKLAKILPVNLKT
2. HMYSRQRDLILKALRENVVHPTADFIYTVLKEKEPNLSLATVYRNLNLLANEGIIRKIEGLDGVAHFDH
3. HMETVMYLRQIKRPQGIYLAIQESYYDSSKKQSRTRTIESIGYLDNLRKEYEDPIAFFSQKAAAMTSEKKK

1. -2.5
2. -1.85
3. -1.55

Field: soluble fraction (log2). Fill in for each record below.
1. HMFEKVKLTLTIPSKYSGSTYSALRNRMNKFSKEEWLSNGDLKIEIEVTGGQKTDIYTLINKLTNGEAIIE
2. HMVKNVVIPDVSNKAPVDASNQLTDLGFEVVTEYKYIASDTIEEGKVVKTSPEIGSKRKYGQKITLYISSG
3. HMETKPTELMLDVHKLRIGMFVYLDLGWMDHPFPLNRFKISTNAQIEQIKGLRLKQVKVMTALSDPASLL
4. HMDERLAKLTPQERKILDLIAEGATNRQIGTELHLAEKTVKNYVSNMLMKLGMSRRTEAAVFAVKASIN
5. HMQWLDSIRSRLRVGQTISYFEPRENASSSGLIIELRRKRVLVLEIATQKRWLIEYAAINVDG
6. HMVIREVNDNPVSAEELRLGDRVKVLSLGQNGEIVTLPDEKGELTVQVGILKAKVNLDDIMLI

-1.25
-1.23
-4.91
-1.9
-0.279
-0.177

For every item in the list below, what is its measured soluble fraction (log2)?
1. HMGYSDEIGEFIKKLRTENHLTQKEFADKYGVTYQAVSKWENGKNLPDMSLIKQMSEDFNIGIDELLDGEK
2. HMNELVEATITTQTGRLDKVLTTIFPQYSRSQIQQLLEQGNILVNETLQKGKYKVKAGDKISLTEPAIKE
3. HMDAVDKDGNHMTFKKWSEQLQEAFHALELYDTTRAKQILSELVKFQVDSDITKSLKAIITNIDDMMA
4. HMSAISSARKEKIIEYLTDHGSARSSEIAEYVDLRPSRVRDYLGELVREDIVVAEGANRNRTYRLK
5. HMSASTGTVSYKSGATTVWNSPSWHQVKRYVTFGDTVQLLGKTVDQNGATWYKVGDNQWIPELYLNVAG

-0.00865
0.331
-1.13
-0.0533
-0.725

====

Field: soluble fraction (log2). Provide a value for each of the sequences that follow.
testSummary: soluble fraction after stress (log2 fold change); higher = more stays soluble; pooled small domains, quantitative proteomics
runConditions: stress: 75 degC
Give bare numbers.

Solved entries:
seq	measuredNumber
HMFEMPTSLVRTLSAIAIKQPVMQSEIIKLRGAGAYDHIKELIIRELVHRKEEGRSPILTTTKKFQEYFRL	-2.52
HMSKNYYEILGVTPDVELSQLKAVYRRLVRKYHPDINPDGELIFKDITEAYEVLSDEKQRKQYDMINGF	-0.596
HMEVEIPSREALLGLVQKHLKPVSFDEFVSHFKLGDERQQVGIKRRLRAMERDGQLVYTKANSYGLPDRM	0.436

With those in mind, consider the next sequence.
Look up soluble fraction (log2) for this sequence: HMAPTGTDRQTPHTRDELYLVLSGTGTFVNGDARHPFGPGDALFVPAGAEHRFEDFSDDFRTWVVFYGAEG -0.163

====

testSummary: soluble fraction after stress (log2 fold change); higher = more stays soluble; pooled small domains, quantitative proteomics
runConditions: stress: 75 degC
Returns Fulfilled if the recorded soluble fraction (log2) is greater than or equal to -0.2, and Not fulfilled otherwise.

seq	class
HMNINLNVGKRLKSIRQNKELSLDEVSNLTNVSKPALAQIERGASSPTINTLWKISKGLKVPLSYFLQE	Not fulfilled
HMNETLKQIRINALQYSEKDMATKLGLPLSEYKEIENDKPLNFTLLIRLSQAVGKTIDDLLNAQ	Not fulfilled
HMGAARVTPLYNLRLREGPSTATARLDVVPRGTTLEVRAWDETGDWAQVEYRGQIGWIAAWLAEVEGEAP	Not fulfilled
HMPQFDRQAFGQRLRLLRDYREMTQQQVANFLNVDRSTYSYYENGKTEPSITVLMRMAELFSVTLDSLLNM	Not fulfilled
HMISFLNFVRKEIDASQLKDSTKQNHLTTIGLLQSFKPSIEFKDLNYNFITSFEKYLYDAGYQM	Fulfilled

Does the reported soluble fraction (log2) for HMIVDARNREINLGSHVRYVDTGTVGEVTDSKVENDASWVKIDKTNLWYLANKLELLNDEDFKT fall at or above the -0.2 mark? Fulfilled

Check the entry HMGTAVKAPMPGTILKVNVTAGQSVKAGDIMFILEAMKMENEIVAPSDGTVSQVVAAKGSSVATDDVLAYL : does soluble fraction (log2) equal or exceed -0.2? Not fulfilled

Determine whether measured soluble fraction (log2) meets or exceeds -0.2 for HMDQVLHQLVEVLRRSEIRISPAETLDAFKVLRNVGIDNKSLLREALALTLAKSIHEKIIFYETFDEFFT Not fulfilled

Threshold query (soluble fraction (log2) >= -0.2) on HMSNEEEIEGLVSKVLDNNPEIVERIRSGEDKLISYLVGEVMKQSSSSLNPGIVKEIIVNKTI Fulfilled

Entry HMTLHDLFPQAVEFVSEKEMISTAELQRKLMISYNSAAKIIDQLLHVDFIQKSESAGKYSVLIK : is its soluble fraction (log2) no less than -0.2? Not fulfilled

For this sequence, is measured soluble fraction (log2) -0.2 or higher? HMTNNDIIRRVRYLFNFSDKQVIELFKLANETVSIEHVSGWLKKEEDPTLIEISDRDLAVFLNGLII Fulfilled

In plain terms: is recorded soluble fraction (log2) at least -0.2 for HMNSEERVLDTASKWLVKLDEGLDESEAQVLKVWLATPLHRDTFLEMVALWDKMSVLNELADIV ? Not fulfilled

====

testSummary: soluble fraction after stress (log2 fold change); higher = more stays soluble; pooled small domains, quantitative proteomics
runConditions: stress: 75 degC
# label = label 1 if soluble fraction (log2) >= -1 else label 0

seq	class
HMGKLYRDRYAPLEPDGARAGDRVFIISLEKEGTLERIDLPRKTATVLLGSSIRSTFPLDDLYQPRG	label 1
HMETAESLLRRLIMLEDPAMQNAMYVLAVMLERGKQLVERAAKPHESGGILRVYEHKKSGDTFVVLDPR	label 1
HMGEPVASSREVAKRFGKEHKHVLAAIRQILVAENSATKFFHETAFEYRGQRFPEYLMNRDGFALLAMGF	label 0
HMRPYAYGTGRRKSSTARVHLIPNGSGSITINGRTLDEYFGLETLKLIVRQPLAATETAEKFDVEATVV	label 1
HMKVQEVDYGTFLTMVDEGKVNQVDIENSKQITFNTKGDKNKVYITGQVNDPELVNRLYKAGVEFSQEIP	label 1

Now look at this entry.
Given HMQGEVPYSQFLTEVDRGDVQSVVIEGNNISGFYKNSSTAFTVVAPDDPKLVERLMEQGVEVKARPV , state whether its soluble fraction (log2) is at least -1. label 1
